Cited source: ChEMBL document CHEMBL1134146

We begin with a simple list: items and their reported SI.
- assay_comment: Selectivity index determined for CC50 (test II) to EC50 x 10e3
- Assay type: functional

Example entries begin here.
INSERT INTO measurements (smiles_representation, endpoint_label, assay_value) VALUES
  ('NCCCC[C@H]1NC(=O)[C@H](CCCN=C(N)N)NC(=O)[C@@H](Cc2ccc(O)cc2)NC(=O)[C@H](NC(=O)[C@@H](NC(=O)[C@H](CCCN=C(N)N)NC(=O)[C@@H](N)CCCNC(N)=O)c2ccc3ccccc3c2)CSSC[C@H](C(=O)N[C@@H](CCCN=C(N)N)C(=O)O)NC(=O)[C@H](CCCNC(N)=O)NC(=O)[C@H](CCCN=C(N)N)NC(=O)[C@H](Cc2ccc(O)cc2)NC(=O)[C@H]2CCCN2C(=O)[C@H](CCCNC(N)=O)NC1=O', 'SI', '> 22'),
  ('NCCCC[C@@H]1NC(=O)[C@@H](CCCCN)NC(=O)[C@H](CCCN=C(N)N)NC(=O)[C@@H](Cc2ccc(O)cc2)NC(=O)[C@H](NC(=O)[C@@H](NC(=O)[C@H](CCCN=C(N)N)NC(=O)[C@@H](N)CCCNC(N)=O)c2ccc3ccccc3c2)CSSC[C@H](C(=O)N[C@@H](CCCN=C(N)N)C(=O)O)NC(=O)[C@H](CCCNC(N)=O)NC(=O)[C@H](CCCNC(N)=O)NC(=O)[C@H](Cc2ccc(O)cc2)NC(=O)[C@H]2CCCN2C1=O', 'SI', '> 12'),
  ('NCCCC[C@H]1NC(=O)[C@H](CCCNC(N)=O)NC(=O)[C@@H](Cc2ccc(O)cc2)NC(=O)[C@H](NC(=O)[C@@H](NC(=O)[C@H](CCCN=C(N)N)NC(=O)[C@@H](N)CCCN=C(N)N)c2ccc3ccccc3c2)CSSC[C@H](C(=O)N[C@@H](CCCN=C(N)N)C(N)=O)NC(=O)[C@H](CCCNC(N)=O)NC(=O)[C@H](CCCN=C(N)N)NC(=O)[C@H](Cc2ccc(O)cc2)NC(=O)[C@H]2CCCN2C(=O)[C@H](CCCNC(N)=O)NC1=O', 'SI', '> 2000');

--- query ---
Please report SI for the following compound: NCCCC[C@@H]1NC(=O)[C@@H](CCCCN)NC(=O)[C@H](CCCNC(N)=O)NC(=O)[C@@H](Cc2ccc(O)cc2)NC(=O)[C@H](NC(=O)[C@@H](NC(=O)[C@H](CCCN=C(N)N)NC(=O)[C@@H](N)CCCN=C(N)N)c2ccc3ccccc3c2)CSSC[C@H](C(=O)N[C@@H](CCCN=C(N)N)C(=O)O)NC(=O)[C@H](CCCNC(N)=O)NC(=O)[C@H](CCCNC(N)=O)NC(=O)[C@H](Cc2ccc(O)cc2)NC(=O)[C@H]2CCCN2C1=O
> 90

* * *

Item-by-item account of SI
- assay_comment: Selectivity index determined for CC50 (test II) to EC50 x 10e3
- Assay type: functional

Would you please look over these solved cases?
INSERT INTO measurements (smiles_representation, assay_value) VALUES
  ('NCCCC[C@H]1NC(=O)[C@H](CCCN=C(N)N)NC(=O)[C@@H](Cc2ccc(O)cc2)NC(=O)[C@H](NC(=O)[C@@H](NC(=O)[C@H](CCCN=C(N)N)NC(=O)[C@@H](N)CCCN=C(N)N)c2ccc3ccccc3c2)CSSC[C@H](C(=O)N[C@@H](CCCN=C(N)N)C(=O)O)NC(=O)[C@H](CCCNC(N)=O)NC(=O)[C@H](CCCNC(N)=O)NC(=O)[C@H](Cc2ccc(O)cc2)NC(=O)[C@H]2CCCN2C(=O)[C@H](CCCNC(N)=O)NC1=O', '> 100'),
  ('NCCCC[C@H]1NC(=O)[C@H](CCCNC(N)=O)NC(=O)[C@@H](Cc2ccc(O)cc2)NC(=O)[C@H](NC(=O)[C@@H](NC(=O)[C@H](CCCN=C(N)N)NC(=O)[C@@H](N)CCCN=C(N)N)c2ccc3ccccc3c2)CSSC[C@H](C(=O)N[C@@H](CCCN=C(N)N)C(=O)O)NC(=O)[C@H](CCCNC(N)=O)NC(=O)[C@H](CCCN=C(N)N)NC(=O)[C@H](Cc2ccc(O)cc2)NC(=O)[C@H]2CCCN2C(=O)[C@H](CCCNC(N)=O)NC1=O', '> 1600');

Look up and state reported SI for NCCCC[C@@H]1NC(=O)[C@@H](CCCCN)NC(=O)[C@H](CCCNC(N)=O)NC(=O)[C@@H](Cc2ccc(O)cc2)NC(=O)[C@H](NC(=O)[C@@H](NC(=O)[C@H](CCCN=C(N)N)NC(=O)[C@@H](N)CCCN=C(N)N)c2ccc3ccccc3c2)CSSC[C@H](C(=O)N[C@@H](CCCN=C(N)N)C(N)=O)NC(=O)[C@H](CCCNC(N)=O)NC(=O)[C@H](CCCNC(N)=O)NC(=O)[C@H](Cc2ccc(O)cc2)NC(=O)[C@H]2CCCN2C1=O
> 59
